Listing of recorded solubility by entry.
PROTOCOL_NOTES: Aqueous solubility of the drugs
Assay type: physicochemical
COND: water

Consider the compound CC[C@@H]1C[C@H](N(Cc2cc(C(F)(F)F)cc(C(F)(F)F)c2)C(C)=O)c2cc(C(F)(F)F)ccc2N1C(=O)OC(C)C [Drug 2] and give its measured solubility.
< 1 µg/mL

Consider the compound COCCN(C)Cc1nc(Cc2cccc(C)c2)n(-c2ccc(S(N)(=O)=O)cc2F)n1 [Drug 4] and give its measured solubility.
~740 µg/mL

Consider the compound CCNC1CN(CCCOC)S(=O)(=O)c2sc(S(N)(=O)=O)cc21 (centres unmarked) [Drug 5, brinzolamide, reference compound] and give its measured solubility.
~490 µg/mL

Consider the compound Cc1ccc(C)c(Cc2nc(CO)nn2-c2ccc(S(N)(=O)=O)cc2F)c1 [Drug 3] and give its measured solubility.
~650 µg/mL

Consider the compound Cc1onc(-c2ccccc2)c1-c1ccc(S(N)(=O)=O)cc1 [Drug 1] and give its measured solubility.
~10 µg/mL

* * *

PROTOCOL_NOTES: Log P of Drug 1
Assay type: physicochemical
COND: octanol/water
MEASURED_PROPERTY: logP

Consider the molecule Cc1onc(-c2ccccc2)c1-c1ccc(S(N)(=O)=O)cc1 [Drug 1] and give its measured logP.
~3
